Just for reference, paper PMC5008829 is where these values come from.

biological target: DORN1 WT (ECD), extracellular domain (Arabidopsis thaliana, UniProt Q9LSR8, DEL116-118); construct: extracellular domain, signal peptide removed, pGEX-5X N-terminal GST fusion, E. coli BL21-AI, glutathione Sepharose; primers encode QETSFVY...APHKKVST; experiment: radioligand saturation binding, Sephadex G-25 gel filtration
pKd: −log10 of the molar value.
ATTRIBUTE_MEASURED: pKd

>>> df
                                   molecule                          target_or_system  attribute_measured  quantitative_readout
0  Nc1ncnc2c1ncn2[C@@H]1O[C@H](COP(=O)(O)OP(=O)(O)OP(=O)(O)O)[C@@H](O)[C@H]1O [ATP]  DORN1 WT (ECD), extracellular domain (Arabidopsis thaliana, UniProt Q9LSR8, DEL116-118)                 pKd                  6.27

###

target: DORN1 WT (ECD), extracellular domain (Arabidopsis thaliana, UniProt Q9LSR8, DEL141-146); construct: extracellular domain, signal peptide removed, pGEX-5X N-terminal GST fusion, E. coli BL21-AI, glutathione Sepharose; primers encode QETSFVY...APHKKVST; test: radioligand saturation binding, Sephadex G-25 gel filtration
pKd: −log10 of the molar value.
ATTRIBUTE_MEASURED: pKd

>>> df
                                     smiles                          target_or_system  quantitative_readout
0  Nc1ncnc2c1ncn2[C@@H]1O[C@H](COP(=O)(O)OP(=O)(O)OP(=O)(O)O)[C@@H](O)[C@H]1O  DORN1 WT (ECD), extracellular domain (Arabidopsis thaliana, UniProt Q9LSR8, DEL141-146)                  6.72

###

Target: DORN1 WT (ECD), extracellular domain (Arabidopsis thaliana)
Construct: extracellular domain, signal peptide removed, pGEX-5X N-terminal GST fusion, E. coli BL21-AI, glutathione Sepharose; primers encode QETSFVY...APHKKVST
Sequence (Q9LSR8 23-288): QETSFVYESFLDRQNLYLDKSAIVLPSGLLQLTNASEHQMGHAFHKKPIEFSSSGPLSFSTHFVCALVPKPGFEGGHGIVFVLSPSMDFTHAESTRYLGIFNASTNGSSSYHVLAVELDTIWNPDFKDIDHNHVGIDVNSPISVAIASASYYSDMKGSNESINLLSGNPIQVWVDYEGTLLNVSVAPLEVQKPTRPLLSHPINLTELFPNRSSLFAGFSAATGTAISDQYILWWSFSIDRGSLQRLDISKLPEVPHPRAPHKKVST
Experiment: radioligand saturation binding, Sephadex G-25 gel filtration
pKd: −log10 of the molar value.
ATTRIBUTE_MEASURED: pKd

>>> df
                                   molecule  attribute_measured  quantitative_readout
0  Nc1ncnc2c1ncn2[C@@H]1O[C@H](COP(=O)(O)OP(=O)(O)OP(=O)(O)O)[C@@H](O)[C@H]1O [ATP]                 pKd                  7.42

###

Target: DORN1 WT (LEC), lectin domain only (Arabidopsis thaliana)
Construct: L-type lectin domain only, recombinant from E. coli (GST fusion likely)
Assay: radioligand saturation binding, Sephadex G-25 gel filtration
Settings: [γ-32P]ATP labelled compound; 10 mM HEPES pH 7.5, 5 mM MgCl2, on ice 30 min
Excerpt: radioligand saturation binding, Sephadex G-25 gel filtration on DORN1 WT (LEC), lectin domain only | WT (LEC): lectin domain only, WT (ECD): extracellular domain
ATTRIBUTE_MEASURED: Kd (nM)

>>> df
                                     smiles  attribute_measured  unit  quantitative_readout
0  Nc1ncnc2c1ncn2[C@@H]1O[C@H](COP(=O)(O)OP(=O)(O)OP(=O)(O)O)[C@@H](O)[C@H]1O                  Kd    nM                  52.6
